Values were extracted from the Immune Epitope Database (IEDB).

# Target entity: HLA-A*02:06
# Assay details: IEDB peptide-MHC binding, purified MHC/competitive/fluorescence; filed as Kd, often an IC50 or EC50 that approximates it; bounds were set here for any values at or beyond the usual limits of such assays
# Conditions: source organism: Human immunodeficiency virus 1
Exercise: for every item that follows, state its recorded Kd.
The reply should contain only the number, in nM.

get_value(item= IEVKDTKEAL , readout=Kd) returns 574

get_value(item= VLYCVHQEI , readout=Kd) returns 4.05

---

# Target entity: HLA-A*69:01
# Assay details: IEDB peptide-MHC binding, purified MHC/direct/fluorescence; filed as Kd, often an IC50 or EC50 that approximates it; bounds were set here for any values at or beyond the usual limits of such assays
# Conditions: source organism: Pseudomonas aeruginosa
Exercise: for every item that follows, state its recorded Kd.
The reply should contain only the number, in µM.

AYFATPASV on HLA-A*69:01 gives Kd = 4.37

ACMDGFEVV on HLA-A*69:01 gives Kd = 2.7

---

# Target entity: HLA-A*02:16
# Assay details: IEDB peptide-MHC binding, purified MHC/competitive/fluorescence; filed as Kd, often an IC50 or EC50 that approximates it; bounds were set here for any values at or beyond the usual limits of such assays
# Conditions: source organism: Vibrio vulnificus YJ016
Quantity name: Kd

get_value(item= HTSALSLGY , readout=Kd) returns ≥ 20 µM

---

# Target entity: HLA-B*46:01
# Assay details: IEDB peptide-MHC binding, purified MHC/direct/fluorescence; filed as Kd, often an IC50 or EC50 that approximates it; bounds were set here for any values at or beyond the usual limits of such assays
# Conditions: source organism: Yellow fever virus 17D
Quantity name: Kd

get_value(item= CRTAFKPVL , readout=Kd) returns ≥ 20 µM

---

# Target entity: HLA-A*02:06
# Assay details: IEDB peptide-MHC binding, purified MHC/competitive/radioactivity; filed as Kd, often an IC50 or EC50 that approximates it; bounds were set here for any values at or beyond the usual limits of such assays
# Conditions: source organism: Dengue virus 3 Martinique/1243/1999
Quantity name: Kd
Answers without a unit are incomplete; give the number and then its unit.

get_value(item= GIMTIDLDPV , readout=Kd) returns 83 nM

get_value(item= LMLVTPSMTM , readout=Kd) returns 974 nM

get_value(item= FTMTHRRPTI , readout=Kd) returns 647 nM

get_value(item= FLAIPPTAGV , readout=Kd) returns 120 nM

get_value(item= VMLLVLCAV , readout=Kd) returns 12.4 nM

get_value(item= AIVLEFFMMV , readout=Kd) returns 7.87 nM

get_value(item= KVDNFTMGV , readout=Kd) returns 4.24 nM

get_value(item= TQHGTILIKV , readout=Kd) returns 526 nM

---

# Target entity: HLA-B*08:01
# Assay details: IEDB peptide-MHC binding, purified MHC/direct/fluorescence; filed as Kd, often an IC50 or EC50 that approximates it; bounds were set here for any values at or beyond the usual limits of such assays
# Conditions: source organism: Vibrio cholerae
pKd: −log10 of the molar value.
Quantity name: pKd

get_value(item= VLKLRFWLI , readout=pKd) returns 7.47

get_value(item= AEIDRSFKP , readout=pKd) returns ≤ 4.70

get_value(item= GEHWLGRIW , readout=pKd) returns ≤ 4.70
